Target: equine butyrylcholinesterase (Equus caballus, UniProt P81908)
Sequence (P81908 whole entry): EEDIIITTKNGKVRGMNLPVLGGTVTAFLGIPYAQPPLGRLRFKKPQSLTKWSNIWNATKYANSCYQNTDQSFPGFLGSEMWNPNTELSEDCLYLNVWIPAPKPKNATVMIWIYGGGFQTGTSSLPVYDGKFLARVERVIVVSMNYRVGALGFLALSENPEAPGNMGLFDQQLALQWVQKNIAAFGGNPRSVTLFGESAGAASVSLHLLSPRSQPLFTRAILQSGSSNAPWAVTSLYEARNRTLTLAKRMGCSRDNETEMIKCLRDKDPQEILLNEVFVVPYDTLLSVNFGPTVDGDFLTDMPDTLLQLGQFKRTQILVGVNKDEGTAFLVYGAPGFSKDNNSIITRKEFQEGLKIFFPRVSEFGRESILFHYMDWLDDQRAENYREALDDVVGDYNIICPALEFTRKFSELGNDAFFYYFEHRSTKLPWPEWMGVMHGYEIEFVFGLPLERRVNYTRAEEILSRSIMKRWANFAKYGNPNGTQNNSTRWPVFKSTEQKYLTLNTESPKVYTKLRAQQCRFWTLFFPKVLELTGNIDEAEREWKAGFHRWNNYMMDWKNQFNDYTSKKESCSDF
Assay: BuChE inhibition, Ellman's colorimetric method
Assay type: biochemical
Settings: read-out: % BuChE inhibition mean ± SEM
Form field: inhibition at 250 µM (one value per entry).

MOLECULE	inhibition at 250 µM / %
Cc1ccc(N2C(=O)c3ccccc3C2=O)c(C)c1	75.7
O=C1c2ccccc2C(=O)N1c1ccc(C(F)(F)F)cc1	61.8
O=C1c2ccccc2C(=O)N1c1ccc(Br)cc1	64.4
COc1cc2c(cc1OC)C(=O)C(CC1CCN(Cc3ccccc3)CC1)C2 (stereo not shown) [donepezil, reference compound]	82.5

---

Molecular target: UniProt:P81908
Assay: BuChE inhibition, Ellman's colorimetric method
Type: biochemical
Conditions: read-out: % BuChE inhibition mean ± SEM
Form field: inhibition at 1000 µM (one value per entry).

MOLECULE	inhibition at 1000 µM
O=C1c2ccccc2C(=O)N1c1ccc(Br)cc1	78.2%
Cc1ccc(N2C(=O)c3ccccc3C2=O)c(C)c1	87.3%
COc1cc2c(cc1OC)C(=O)C(CC1CCN(Cc3ccccc3)CC1)C2 (stereo not shown) [donepezil, reference compound]	91.3%
O=C1c2ccccc2C(=O)N1c1ccc(C(F)(F)F)cc1	75.4%
